Ref: PubChem BioAssay (Tox21)

test: qHTS assay to identify small molecule antagonists of the estrogen related receptor (ERR) signaling pathway from Tox21 library - cell viability counter screen (AID 1224834); details: ERR reporter cells viability, CellTiter-Fluor, 17.5 h; series mostly up to 92.4 µM; note: nearly all actives have a fitted effect of over 30% in size
Records with an inconclusive call do not appear. Activity calls are given as the source filed them. Calls come from the whole dose curve; as a rule, active = well fitted cell-killing curve with a large enough effect in the repeat runs; inconclusive = weak or mixed curves; inactive = flat fitted curve, though single readings scatter.
Labels: yes (active), no (inactive)

1. C/C=C/C(=O)OCC(C)C ... no
2. O=[N+]([O-])c1ccc(CO)cc1 ... no
3. C[C@H]1O[C@@H](O[C@H]2CC[C@@]3(C)[C@H](CC[C@@H]4[C@@H]3C[C@@H](O)[C@]3(C)[C@@H](C5=CC(=O)OC5)CC[C@]43O)C2)C[C@H](O)[C@@H]1O[C@H]1C[C@H](O)[C@H](O[C@H]2C[C@H](O)[C@H](O[C@@H]3O[C@H](CO)[C@@H](O)[C@H](O)[C@H]3O)[C@@H](C)O2)[C@@H](C)O1 ... yes
4. COc1cccc(-c2ccc(/C=C\CN3CCCCCC3)cc2Cl)c1 ... no
5. CC(=O)CC(N)=O ... no
6. CC(=O)[C@]1(O)Cc2c(O)c3c(c(O)c2[C@@H](O[C@H]2C[C@H](N)[C@H](O)[C@H](C)O2)C1)C(=O)c1ccccc1C3=O ... yes
7. CC(C=O)c1ccccc1 (centres undefined) ... no
8. Cc1ccc(Cl)c(N)c1Cl ... no
9. CCN(CC)c1ccc(C=O)c(O)c1 ... no
